IC50 at 72 h for assorted compounds
# assay.overview: Cytotoxicity against HUVEC cells assessed as inhibition of cell growth incubated for 72 hrs measured by spectrophotometer analysis
# Assay type: toxicity, cell-based
# assay.context: human
property.name: IC50 at 72 h (µM)

CC(C)N(Cc1ccc(C(=O)NO)cc1)S(=O)(=O)c1c(F)c(F)c(F)c(F)c1F
3.7
CC(C)N(Cc1ccc(C(=O)NO)cc1)S(=O)(=O)c1cc(F)c(F)c(F)c1F
10.1

* * *

# tgt: Histone deacetylase 8 (Homo sapiens, UniProt Q9BY41)
# Sequence (Q9BY41 whole entry): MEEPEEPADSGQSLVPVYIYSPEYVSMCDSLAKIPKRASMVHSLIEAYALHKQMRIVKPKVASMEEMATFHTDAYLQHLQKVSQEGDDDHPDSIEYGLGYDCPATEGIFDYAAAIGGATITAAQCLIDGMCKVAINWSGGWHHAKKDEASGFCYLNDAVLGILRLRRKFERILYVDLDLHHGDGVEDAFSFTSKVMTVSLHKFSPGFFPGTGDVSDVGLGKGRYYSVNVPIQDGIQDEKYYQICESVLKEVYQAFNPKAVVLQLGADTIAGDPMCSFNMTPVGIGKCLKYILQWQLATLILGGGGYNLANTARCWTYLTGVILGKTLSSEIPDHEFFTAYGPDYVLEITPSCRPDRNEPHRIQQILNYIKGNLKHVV
# assay.overview: Inhibition of full length human recombinant HDAC8 expressed in Sf9 baculovirus system using FAM-labeled acetylated peptide as substrate by measuring fluorescence intensity by EMSA method
property.name: IC50

COc1cc(C(=O)NO)ccc1CN(C(C)C)S(=O)(=O)c1cc(F)c(F)c(F)c1F
474 nM
O=C(NO)c1ccc(CN(C2CCCC2)S(=O)(=O)c2cc(F)c(F)c(F)c2F)cc1
> 1000 nM
CC(C)CN(Cc1ccc(C(=O)NO)cc1)S(=O)(=O)c1cc(F)c(F)c(F)c1F
> 1000 nM
O=C(NO)c1ccc(CN(C2CC2)S(=O)(=O)c2cc(F)c(F)c(F)c2F)cc1
> 1000 nM

* * *

# assay.overview: Cmax in CD-1 mouse at 20 mg/kg, ip
# Assay type: ADME, organism-based
# Design: dose 20 mg/kg, route ip
# assay.context: in vivo
property.name: Cmax (ng/mL)

CCCCN(Cc1ccc(C(=O)NO)cc1)C(=O)Nc1ccccc1
750

* * *

log10 IC50 for assorted compounds
# tgt: Protein deacetylase HDAC6 (Homo sapiens, UniProt Q9UBN7)
# Sequence (Q9UBN7 whole entry): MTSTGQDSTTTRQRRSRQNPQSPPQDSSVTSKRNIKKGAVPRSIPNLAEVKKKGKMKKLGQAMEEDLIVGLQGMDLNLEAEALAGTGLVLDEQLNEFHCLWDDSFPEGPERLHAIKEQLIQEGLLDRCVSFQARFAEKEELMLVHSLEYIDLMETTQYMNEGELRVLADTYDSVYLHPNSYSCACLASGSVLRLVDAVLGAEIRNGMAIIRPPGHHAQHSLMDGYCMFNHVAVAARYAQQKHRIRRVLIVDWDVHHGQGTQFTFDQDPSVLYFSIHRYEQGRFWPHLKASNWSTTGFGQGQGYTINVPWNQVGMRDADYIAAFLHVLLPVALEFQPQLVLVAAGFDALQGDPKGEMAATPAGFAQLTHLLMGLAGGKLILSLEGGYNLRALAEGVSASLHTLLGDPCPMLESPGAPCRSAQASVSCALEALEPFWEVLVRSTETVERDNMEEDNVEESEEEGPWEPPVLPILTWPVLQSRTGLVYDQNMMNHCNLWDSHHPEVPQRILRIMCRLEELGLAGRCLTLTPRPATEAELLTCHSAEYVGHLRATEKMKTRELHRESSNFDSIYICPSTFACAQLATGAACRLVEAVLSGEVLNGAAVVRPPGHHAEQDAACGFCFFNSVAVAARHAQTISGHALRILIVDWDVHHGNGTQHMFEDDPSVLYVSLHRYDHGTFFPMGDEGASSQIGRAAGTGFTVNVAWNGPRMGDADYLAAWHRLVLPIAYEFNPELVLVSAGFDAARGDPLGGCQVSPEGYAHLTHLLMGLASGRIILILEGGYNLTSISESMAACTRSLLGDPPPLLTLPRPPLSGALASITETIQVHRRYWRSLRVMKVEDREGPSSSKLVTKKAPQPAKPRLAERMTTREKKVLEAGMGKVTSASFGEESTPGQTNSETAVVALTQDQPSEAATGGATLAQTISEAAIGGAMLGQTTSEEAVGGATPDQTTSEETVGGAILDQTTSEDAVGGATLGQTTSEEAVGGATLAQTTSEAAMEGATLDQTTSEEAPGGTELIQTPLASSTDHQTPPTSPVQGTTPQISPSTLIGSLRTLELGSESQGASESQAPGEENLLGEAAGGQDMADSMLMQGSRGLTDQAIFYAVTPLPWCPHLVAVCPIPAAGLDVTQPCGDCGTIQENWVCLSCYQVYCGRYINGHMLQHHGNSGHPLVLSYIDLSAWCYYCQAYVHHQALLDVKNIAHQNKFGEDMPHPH
# assay.overview: Inhibition of full length human recombinant HDAC6 expressed in Sf9 baculovirus system using FAM-labeled acetylated peptide as substrate by measuring fluorescence intensity by EMSA method
property.name: log10 IC50 (log10 of the value in nM)

O=C(NO)c1ccc2c(c1)CCN(S(=O)(=O)c1cc(F)c(F)c(F)c1F)C2
1.70
O=C(NO)c1ccc(CN(C2CCCC2)S(=O)(=O)c2cc(F)c(F)c(F)c2F)cc1
1.70
CC(C)N(Cc1ccc(C(=O)NO)cn1)S(=O)(=O)c1cc(F)c(F)c(F)c1F
2.08
CC(C)N(Cc1ccc(CC(=O)NO)cc1)S(=O)(=O)c1cc(F)c(F)c(F)c1F
2.16
CC(C)N(Cc1ccc(C(=O)NO)cc1)S(=O)(=O)c1c(F)c(F)c(F)c(F)c1F
0.64
CC(C)CN(Cc1ccc(C(=O)NO)cc1)S(=O)(=O)c1cc(F)c(F)c(F)c1F
1.39
COCCN(Cc1ccc(C(=O)NO)cc1)S(=O)(=O)c1cc(F)c(F)c(F)c1F
1.44
CC(C)N(Cc1ccc(C(=O)NO)cc1)Cc1cc(F)c(F)c(F)c1F
1.21

* * *

# tgt: Histone deacetylase 2 (Homo sapiens, UniProt Q92769)
# Sequence (Q92769 whole entry): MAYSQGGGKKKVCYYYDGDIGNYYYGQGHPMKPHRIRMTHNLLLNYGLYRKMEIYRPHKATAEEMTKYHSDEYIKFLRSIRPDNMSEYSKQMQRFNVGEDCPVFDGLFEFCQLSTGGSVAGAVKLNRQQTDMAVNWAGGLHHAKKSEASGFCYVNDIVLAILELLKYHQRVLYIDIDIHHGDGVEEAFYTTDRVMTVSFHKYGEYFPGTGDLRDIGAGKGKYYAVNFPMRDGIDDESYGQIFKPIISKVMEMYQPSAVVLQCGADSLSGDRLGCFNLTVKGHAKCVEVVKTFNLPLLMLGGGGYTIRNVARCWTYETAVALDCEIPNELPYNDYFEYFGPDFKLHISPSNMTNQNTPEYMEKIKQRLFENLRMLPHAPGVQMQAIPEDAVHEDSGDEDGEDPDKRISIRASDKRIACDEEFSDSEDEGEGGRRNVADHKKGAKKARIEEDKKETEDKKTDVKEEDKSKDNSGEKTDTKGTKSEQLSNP
# assay.overview: Inhibition of full length human recombinant HDAC2 expressed in Sf9 baculovirus system using FAM-labeled acetylated peptide as substrate by measuring fluorescence intensity by EMSA method
pIC50: −log10 of the molar value.
property.name: pIC50

CC(C)N(Cc1ccc(C(=O)NO)cc1)S(=O)(=O)c1cc(F)c(F)c(F)c1F
6.50

* * *

IC50 at 72 h for assorted compounds
# assay.overview: in vitro
# assay.context: human, MRC9 cells
property.name: IC50 at 72 h

CC(C)CN(Cc1ccc(C(=O)NO)cc1)S(=O)(=O)c1cc(F)c(F)c(F)c1F
> 50 µM
O=C(CCCCCCNC(=O)c1cnc(N(c2ccccc2)c2ccccc2)nc1)NO [RICOLINOSTAT]
> 20 µM
CCCCN(Cc1ccc(C(=O)NO)cc1)C(=O)Nc1ccccc1 [NEXTURASTAT A]
> 20 µM
CC(C)N(Cc1ccc(C(=O)NO)cc1)Cc1cc(F)c(F)c(F)c1F
> 50 µM
COCCN(Cc1ccc(C(=O)NO)cc1)S(=O)(=O)c1cc(F)c(F)c(F)c1F
> 25 µM

Ref: ChEMBL document CHEMBL5154721
